tested on: HOP-62 NSCLC; experiment: NCI-60 one-dose screen, 48 h (100 = growth as untreated, 0 = no growth, -100 = all killed); details: 10 µM
The panel holds about 83,000 compounds, 20% with a hit somewhere; the sample as a whole holds those more often.
In plain terms, low growth, meaning strictly below 20%, gives True, and everything else gives False.

[[record]]
molecule = "COS(=O)(=O)c1ccccc1"
qualitative_label = "False"

[[record]]
molecule = "COc1ccccc1[As]=[As]c1ccccc1OC (configuration not stated)"
qualitative_label = "True"

[[record]]
molecule = "COc1cc(/C=C/[N+](=O)[O-])cc(OC)c1OC"
qualitative_label = "True"

[[record]]
molecule = "O=C1C=Cc2ccccc2C1=O"
qualitative_label = "False"

[[record]]
molecule = "COc1ccc(/C=C(\\C)[N+](=O)[O-])cc1OC"
qualitative_label = "False"

[[record]]
molecule = "O=[P+](O)c1ccccc1"
qualitative_label = "False"

[[record]]
molecule = "COC(=O)C1C(O)C(C)C(O)C(C)/C=C\\C=C(C)C(=O)Nc2c(C)c(OC(C)=O)c3c(c2O)C(=O)C(C)=C2OCOC(=C23)C(C)=CC(C)(O)C(O)C(C)C1O (configuration not stated)"
qualitative_label = "False"

[[record]]
molecule = "O=C1C(=O)c2ccccc2-c2ccccc21"
qualitative_label = "True"

[[record]]
molecule = "C[CH2][Hg][S]c1ccccc1C(=O)O"
qualitative_label = "False"

[[record]]
molecule = "O=[N+]([O-])c1ccc(N2CCOCC2)c2c1no[n+]2[O-]"
qualitative_label = "True"

[[record]]
molecule = "CN(CCCl)c1ccc(/C=C/C2=[N+](C)c3ccccc3C2(C)C)cc1"
qualitative_label = "False"

[[record]]
molecule = "C/C(=C\\c1ccc(Cl)c(Cl)c1)[N+](=O)[O-]"
qualitative_label = "False"

[[record]]
molecule = "C[C@@H]1C[C@@H]([C@H](O)CC2CC(=O)NC(=O)C2)C(=O)[C@@H](C)C1"
qualitative_label = "True"

[[record]]
molecule = "[Cl][Sn]([c]1ccccc1)([c]1ccccc1)[c]1ccccc1"
qualitative_label = "True"

[[record]]
molecule = "O=C(CBr)Nc1ccccc1"
qualitative_label = "False"

[[record]]
molecule = "[O-][n+]1ccccc1S"
qualitative_label = "False"

[[record]]
molecule = "CC(C)(C)OOC(=O)/C=C\\C(=O)OOC(C)(C)C"
qualitative_label = "False"

[[record]]
molecule = "CCCCCCCC[N+]12CN3CN(CN(C3)C1)C2"
qualitative_label = "False"

[[record]]
molecule = "COC12c3c(C)cc(O)c4c(=O)occ(c34)C(=O)C1C13COC(=O)c4c(O)cc(C)c(c41)C(=O)C2C3OC(C)=O (configuration not stated)"
qualitative_label = "False"

[[record]]
molecule = "CC(Cc1ccc2c(c1)OCO2)NN (configuration not stated)"
qualitative_label = "False"

[[record]]
molecule = "COc1cc(/C=C/[N+](=O)[O-])cc(Br)c1OC"
qualitative_label = "False"

[[record]]
molecule = "CC(C)c1cc([N+](=O)[O-])cc([N+](=O)[O-])c1O"
qualitative_label = "False"

[[record]]
molecule = "COC1CC2C=C(C)/C=C/C=C/C(=O)NC(c3ccccc3)C/C=C/CCC(O)CC(=O)C2=C1O (configuration not stated)"
qualitative_label = "True"

[[record]]
molecule = "COc1cc([N+](=O)[O-])c2ncccc2c1[N+](=O)[O-]"
qualitative_label = "False"

[[record]]
molecule = "Cc1cc(C)c(C[N+](C)(C)C)c(C)c1C"
qualitative_label = "True"

[[record]]
molecule = "O=S(=O)(F)c1ccc(Cl)cc1"
qualitative_label = "False"

[[record]]
molecule = "CC1CCC2(OC1)OC1C(O)C3C4CCC5CC(OC6OC(CO)C(OC7OC(CO)C(O)C(OC8OCC(O)C(O)C8O)C7OC7OC(CO)C(O)C(OC8OC(CO)C(O)C(O)C8O)C7O)C(O)C6O)C(O)CC5(C)C4CCC3(C)C1C2C (configuration not stated)"
qualitative_label = "True"

[[record]]
molecule = "NC(=O)c1cc([N+](=O)[O-])c(Cl)c([N+](=O)[O-])c1"
qualitative_label = "False"

[[record]]
molecule = "NC(Cc1ccccc1)c1ccccc1 (configuration not stated)"
qualitative_label = "False"

[[record]]
molecule = "O=[N+]([O-])c1ccc(N(CCO)CCO)c2c1no[n+]2[O-]"
qualitative_label = "True"

[[record]]
molecule = "Oc1c(I)cc(I)cc1I"
qualitative_label = "False"

[[record]]
molecule = "COc1cc2c(c(OC)c1OC)-c1ccc(O)c(=O)cc1[C@@H](NC(C)=O)CC2"
qualitative_label = "False"

[[record]]
molecule = "COc1ccc2c(ccc3oc([N+](=O)[O-])cc32)c1"
qualitative_label = "True"

[[record]]
molecule = "NC(=O)c1cc([N+](=O)[O-])c(Cl)c([N+](=O)[O-])c1Cl"
qualitative_label = "False"

[[record]]
molecule = "[Cl][Hg][c]1ccc2ccccc2c1"
qualitative_label = "True"

[[record]]
molecule = "COC(C(=O)C(O)C(C)O)C1Cc2cc3cc(OC4CC(OC(C)=O)C(OC5CC(O)C(OC)C(C)O5)C(C)O4)cc(O)c3c(O)c2C(=O)C1OC1CC(OC2CC(OC3CC(C)(O)C(OC(=O)C(C)C)C(C)O3)C(O)C(C)O2)C(O)C(C)O1 (configuration not stated)"
qualitative_label = "True"

[[record]]
molecule = "CN(C)CC1(N)C(=O)NC(=O)NC1=O"
qualitative_label = "False"


====

system: MDA-MB-231 breast; test: NCI-60 one-dose screen, 48 h (100 = growth as untreated, 0 = no growth, -100 = all killed); settings: 10 µM
Compounds without any hit were thinned out: in the full panel of roughly 83,000, 20% have a hit.
Each item that follows carries a reported growth.
RESULT_TYPE: growth (%)

[[record]]
compound = "CC/C(=C/c1ccc(OC)cc1OC)[N+](=O)[O-]"
reported_value = 18.4

[[record]]
compound = "COC1CC2C=C(C)/C=C/C=C/C(=O)NC(c3ccccc3)C/C=C/CCC(O)CC(=O)C2=C1O (stereo not drawn)"
reported_value = -74.8

[[record]]
compound = "CC(C)c1cc([N+](=O)[O-])cc([N+](=O)[O-])c1O"
reported_value = 99.7

[[record]]
compound = "O=[N+]([O-])c1ccc(N(CCO)CCO)c2c1no[n+]2[O-]"
reported_value = -12

[[record]]
compound = "NNc1ccccc1"
reported_value = 89.8

[[record]]
compound = "COc1cc(/C=C/[N+](=O)[O-])cc(Br)c1OC"
reported_value = 7.14

[[record]]
compound = "COS(=O)(=O)c1ccccc1"
reported_value = 123

[[record]]
compound = "ClCc1ccc2ccccc2n1"
reported_value = 102


====

system: SK-MEL-5 melanoma; assay: NCI-60 one-dose screen, 48 h (100 = growth as untreated, 0 = no growth, -100 = all killed); conditions: 10 µM
The panel holds about 83,000 compounds, 20% with a hit somewhere; the sample as a whole holds those more often.
In plain terms, low growth, meaning strictly below 90%, gives Condition met, and everything else gives Condition not met.

[[record]]
compound = "COc1ccccc1/C=C/[N+](=O)[O-]"
tgt = "SK-MEL-5 melanoma"
qualitative_label = "Condition met"

[[record]]
compound = "S=C=NCCc1ccccc1"
tgt = "SK-MEL-5 melanoma"
qualitative_label = "Condition met"

[[record]]
compound = "O=C1C(=O)c2ccccc2-c2ccccc21"
tgt = "SK-MEL-5 melanoma"
qualitative_label = "Condition met"

[[record]]
compound = "CC(C)c1cc([N+](=O)[O-])cc([N+](=O)[O-])c1O"
tgt = "SK-MEL-5 melanoma"
qualitative_label = "Condition not met"

[[record]]
compound = "COc1cc2c(c(OC)c1OC)-c1ccc(O)c(=O)cc1[C@@H](NC(C)=O)CC2"
tgt = "SK-MEL-5 melanoma"
qualitative_label = "Condition met"

[[record]]
compound = "CCOP(=O)(OCC)C(O)c1ccccc1Cl (stereo unspecified)"
tgt = "SK-MEL-5 melanoma"
qualitative_label = "Condition not met"

[[record]]
compound = "CC(Cc1ccc2c(c1)OCO2)NN (stereo unspecified)"
tgt = "SK-MEL-5 melanoma"
qualitative_label = "Condition not met"

[[record]]
compound = "Cc1ccc(NC(=O)CBr)cc1"
tgt = "SK-MEL-5 melanoma"
qualitative_label = "Condition not met"


====

test system: UACC-62 melanoma; test: NCI-60 one-dose screen, 48 h (100 = growth as untreated, 0 = no growth, -100 = all killed); settings: 10 µM unless noted
This is part of a sample that, as a whole, favours compounds with a hit. Of some 83,000 tested, about 20% had one in any assay.
Each item that follows carries a reported growth.
RESULT_TYPE: growth (%)

[[record]]
compound = "O=C(CBr)Nc1ccc(Cl)cc1"
reported_value = 71.6

[[record]]
compound = "CC(=O)[O][Hg][c]1c(C)c(C)cc(C)c1C"
reported_value = -26.1

[[record]]
compound = "O=C1CCC(=O)N1SC(Cl)(Cl)Cl"
reported_value = 106

[[record]]
compound = "NC(=O)c1cc([N+](=O)[O-])c(Cl)c([N+](=O)[O-])c1Cl"
reported_value = 5.65

[[record]]
compound = "COC(C(=O)C(O)C(C)O)C1Cc2cc3cc(OC4CC(OC(C)=O)C(OC5CC(O)C(OC)C(C)O5)C(C)O4)cc(O)c3c(O)c2C(=O)C1OC1CC(OC2CC(OC3CC(C)(O)C(OC(=O)C(C)C)C(C)O3)C(O)C(C)O2)C(O)C(C)O1 (stereo unspecified)"
reported_value = -97

[[record]]
compound = "NC(=O)c1cc([N+](=O)[O-])c(Cl)c([N+](=O)[O-])c1"
reported_value = 100

[[record]]
compound = "COc1ccc(/C=C(\\C)[N+](=O)[O-])cc1OC"
reported_value = 32.7

[[record]]
compound = "[Cl][Hg][c]1ccc(Cl)s1"
reported_value = 51.3

[[record]]
compound = "CCOP(=O)(OCC)C(O)c1ccccc1Cl (stereo unspecified)"
reported_value = 108

[[record]]
compound = "O=C1C=Cc2ccccc2C1=O"
reported_value = 100

[[record]]
compound = "O=[N+]([O-])c1ccc(Br)c([N+](=O)[O-])c1"
reported_value = 103

[[record]]
compound = "Oc1c(Cl)cc(Cl)c2ccccc12.[Cu+2]"
reported_value = 109

[[record]]
compound = "Cc1cc(C(C)(C)c2ccc(O)c(C)c2)ccc1O"
reported_value = 79.3

[[record]]
compound = "C=C1C(=O)O[C@@H]2C[C@@H](C)[C@@H]3C=CC(=O)[C@@]3(C)[C@@H](O)[C@H]12"
reported_value = -61.4

[[record]]
compound = "CC/C(=C/c1ccc(OC)cc1OC)[N+](=O)[O-]"
reported_value = -36.2

[[record]]
compound = "COC1CC2C=C(C)/C=C/C=C/C(=O)NC(c3ccccc3)C/C=C/CCC(O)CC(=O)C2=C1O (stereo unspecified)"
reported_value = -89.3

[[record]]
compound = "C#CC1(O)CCC(C(C)(C)C)CC1 (stereo unspecified)"
reported_value = 104

[[record]]
compound = "CC[C@@]1(O)C[C@H](OC2CC(N(C)C)C(O)C(C)O2)c2c(cc3c(c2O)C(=O)c2c(O)ccc(O)c2C3=O)[C@H]1C(=O)OC (stereo partly specified)"
reported_value = -91.4

[[record]]
compound = "COC12C(COC(N)=O)C3=C(C(=O)C(C)=C(N)C3=O)N1CC1C2N1C (stereo unspecified)"
reported_value = 46.3

[[record]]
compound = "COS(=O)(=O)c1ccccc1"
reported_value = 102

[[record]]
compound = "O=[N+]([O-])c1ccc(N2CCOCC2)c2c1no[n+]2[O-]"
reported_value = -24.9

[[record]]
compound = "COC12c3c(C)cc(O)c4c(=O)occ(c34)C(=O)C1C13COC(=O)c4c(O)cc(C)c(c41)C(=O)C2C3OC(C)=O (stereo unspecified)"
reported_value = 97.5

[[record]]
compound = "[Cl][Sn]([c]1ccccc1)([c]1ccccc1)[c]1ccccc1"
reported_value = -75.4

[[record]]
compound = "O=[N+]([O-])c1cc[n+]([O-])c2ccccc12"
reported_value = -85.2

[[record]]
compound = "CN(C)CC1(N)C(=O)NC(=O)NC1=O"
reported_value = 97.5

[[record]]
compound = "O=S(=O)(F)c1ccc(Cl)cc1"
reported_value = 103

[[record]]
compound = "[Cl][Hg][c]1ccc2ccccc2c1"
reported_value = -43

[[record]]
compound = "COc1cc(/C=C/[N+](=O)[O-])cc(Br)c1OC"
reported_value = -5.62

[[record]]
compound = "O=C(CBr)Nc1ccccc1"
reported_value = 99.6

[[record]]
compound = "Oc1c(I)cc(I)cc1I"
reported_value = 102

[[record]]
compound = "C[C@]12CC[C@H]3[C@@H](CCC4=CC(=O)CC[C@@H]43)[C@@H]1CC[C@@H]2OC(=O)N(CCCl)N=O"
reported_value = 20.6

[[record]]
compound = "COC(=O)C1C(O)C(C)C(O)C(C)/C=C\\C=C(C)C(=O)Nc2c(C)c(OC(C)=O)c3c(c2O)C(=O)C(C)=C2OCOC(=C23)C(C)=CC(C)(O)C(O)C(C)C1O (stereo unspecified)"
reported_value = 97.4

[[record]]
compound = "CCOP(=O)(OCC)/C(C#N)=C/c1ccc(Br)cc1"
reported_value = 88.6

[[record]]
compound = "CS(=N)(=O)CCC(N)C(=O)O (stereo unspecified)"
reported_value = 113

[[record]]
compound = "COc1cc([N+](=O)[O-])c2ncccc2c1[N+](=O)[O-]"
reported_value = 74

[[record]]
compound = "COc1cc([C@@H]2c3cc4c(c(O)c3C[C@H]3COC(=O)[C@@H]32)OCO4)cc(OC)c1OC"
reported_value = 64.3

